Entries and their measured logP follow.
assay: log P by HPLC on reversed-phase column (EEC Directive 79/831 Annex V.A8); assay type: physicochemical; details: HPLC, reversed-phase C 18, 40° C., 0.1% aqueous formic acid and acetonitrile, linear gradient 10% to 90% acetonitrile
readout type: logP

>>> endpoint_result("C#CCN(Cc1ccccc1CC)C(=O)c1c(C(F)F)nn(C)c1F [Example 17]")
3.10
>>> endpoint_result("Cn1nc(C(F)F)c(C(=O)NC(C#N)c2cc(F)ccc2F)c1Cl (racemic) [Example 7]")
2.31
>>> endpoint_result("Cn1nc(C(F)F)c(C(=O)NC(c2ccc(Cl)cc2Cl)C(F)(F)F)c1Cl (stereo not drawn) [Example 32]")
3.89
>>> endpoint_result("Cn1nc(C(F)F)c(C(=O)NC(C)(C)c2c(F)cccc2F)c1Cl [Example 10]")
3.89
>>> endpoint_result("CC(C)c1ccccc1CN(CC(F)F)C(=O)c1c(C(F)F)nn(C)c1F [Example 78]")
3.49
>>> endpoint_result("CN(Cc1c(Cl)cccc1C(F)(F)F)C(=O)c1c(C(F)F)nn(C)c1F [Example 89]")
2.93
>>> endpoint_result("CC(C)c1ccc(Cl)cc1CN(CC(F)F)C(=O)c1c(C(F)F)nn(C)c1F [Example 80]")
3.81
>>> endpoint_result("Cn1nc(C(F)F)c(C(=O)NC(C)(C)c2ccccc2Cl)c1F [Example 26]")
2.92
>>> endpoint_result("Cn1nc(C(F)F)c(C(=O)NCc2c(F)cccc2C(F)(F)F)c1Cl [Example 96]")
2.86

----------
test system: Alternaria solani; assay: In vivo preventive test on Alternaria solani (tomato); conditions: preventive spray, 500 ppm of active ingredient, evaluated 7 days after inoculation
readout type: Efficacy (%)

>>> endpoint_result("CCC(NC(=O)c1c(C(F)F)nn(C)c1F)c1ccc(Cl)cc1Cl (stereo not drawn) [Example 192]")
95
>>> endpoint_result("CC(c1ccc(Oc2ccccc2)cc1)N(C)C(=O)c1c(C(F)F)nn(C)c1F (racemic) [Example 154]")
95
>>> endpoint_result("CC(NC(=O)c1c(C(F)F)nn(C)c1Cl)c1ccc(-c2ccccc2)cc1 (racemic) [Example 167]")
95
>>> endpoint_result("Cn1nc(C(F)F)c(C(=O)NCc2cccc(-c3ccccc3)c2)c1F [Example 166]")
78
>>> endpoint_result("CON(C(=O)c1c(C(F)F)nn(C)c1Cl)C(C)c1ccc(Cl)cc1Cl (stereo not drawn) [Example 46]")
100
>>> endpoint_result("Cn1nc(C(F)F)c(C(=O)NCc2ccc(OCc3ccccc3)cc2)c1F [Example 161]")
94
>>> endpoint_result("CCN(Cc1ccccc1C(C)C)C(=O)c1c(C(F)F)nn(C)c1F [Example 68]")
80
>>> endpoint_result("CCc1ccccc1CN(C)C(=O)c1c(C(F)F)nn(C)c1F [Example 15]")
95
>>> endpoint_result("C=CCN(Cc1ccccc1CC)C(=O)c1c(C(F)F)nn(C)c1F [Example 16]")
80

----------
experiment: log P by HPLC on reversed-phase column (EEC Directive 79/831 Annex V.A8); assay type: physicochemical; details: HPLC, reversed-phase C 18, 40° C., 0.1% aqueous formic acid and acetonitrile, linear gradient 10% to 90% acetonitrile
readout type: logP

>>> endpoint_result("C=CCN(Cc1c(Cl)cccc1C(F)(F)F)C(=O)c1c(C(F)F)nn(C)c1F")
3.37
>>> endpoint_result("Cc1cccc(C)c1CN(C)C(=O)c1c(C(F)F)nn(C)c1Cl")
3.02
>>> endpoint_result("Cn1nc(C(F)F)c(C(=O)NCc2cc(Cl)ccc2Cl)c1F")
4.19
>>> endpoint_result("CC(C)N(Cc1c(Cl)cccc1C(F)(F)F)C(=O)c1c(C(F)F)nn(C)c1F")
3.61
>>> endpoint_result("CC(C)c1ccccc1CN(C(=O)c1c(C(F)F)nn(C)c1F)C(C)C")
3.70
>>> endpoint_result("CC(C)c1ccccc1CN(CC#N)C(=O)c1c(C(F)F)nn(C)c1F")
2.94
>>> endpoint_result("C=CCN(Cc1ccccc1CC)C(=O)c1c(C(F)F)nn(C)c1F")
3.36
>>> endpoint_result("CCN(Cc1ccccc1C(C)C)C(=O)c1c(C(F)F)nn(C)c1F")
3.42
>>> endpoint_result("Cn1nc(C(F)F)c(C(=O)NCc2ccccc2C(F)(F)F)c1F")
2.76
>>> endpoint_result("Cn1nc(C(F)F)c(C(=O)NC(C#N)c2cc(F)ccc2F)c1F (racemic)")
2.01
>>> endpoint_result("Cn1nc(C(F)F)c(C(=O)NCc2ccccc2Cl)c1Cl")
2.69
>>> endpoint_result("Cn1nc(C(F)F)c(C(=O)N(Cc2cc(Cl)ccc2C(F)(F)F)C2CSC2)c1F")
3.92
>>> endpoint_result("CC(c1ccccc1Cl)N(C)C(=S)c1c(C(F)F)nn(C)c1F (racemic)")
3.44
>>> endpoint_result("CCc1ccccc1CN(CC)C(=O)c1c(C(F)F)nn(C)c1F")
3.13
>>> endpoint_result("Cn1nc(C(F)F)c(C(=O)NCc2c(F)cccc2C(F)(F)F)c1F")
2.69
>>> endpoint_result("CC(NC(=S)c1c(C(F)F)nn(C)c1Cl)c1ccccc1C(F)(F)F (stereo not shown)")
3.55
>>> endpoint_result("CN(Cc1cc(Cl)ccc1Cl)C(=O)c1c(C(F)F)nn(C)c1F")
3.02
>>> endpoint_result("Cn1nc(C(F)F)c(C(=O)NCc2c(Cl)cccc2Cl)c1Cl")
3.89
>>> endpoint_result("Cn1nc(C(F)F)c(C(=O)NCc2ccccc2C2CC2)c1Cl")
2.98

----------
test system: Alternaria solani; assay: In vivo preventive test on Alternaria solani (tomato); settings: preventive spray, 500 ppm of active ingredient, evaluated 7 days after inoculation
Label FALSE if Efficacy falls below 90%; label TRUE in every other case.

>>> category_label("CC(C)c1ccccc1CN(CC(F)F)C(=O)c1c(C(F)F)nn(C)c1F")
"TRUE"
>>> category_label("Cn1nc(C(F)F)c(C(=O)N(CC#N)Cc2c(Cl)cccc2C(F)(F)F)c1F")
"FALSE"
>>> category_label("CCc1ccccc1CN(CC)C(=O)c1c(C(F)F)nn(C)c1F")
"TRUE"
>>> category_label("CC(NC(=O)c1c(C(F)F)nn(C)c1F)c1cc(Cl)ccc1Cl (centres unmarked)")
"TRUE"
>>> category_label("CC(NC(=O)c1c(C(F)F)nn(C)c1F)c1ccccc1Cl (racemic)")
"TRUE"
>>> category_label("CC(NC(=O)c1c(C(F)F)nn(C)c1Cl)c1ccccc1C(F)(F)F (centres unmarked)")
"TRUE"
>>> category_label("C#CCN(Cc1ccccc1C(C)C)C(=O)c1c(C(F)F)nn(C)c1F")
"TRUE"
>>> category_label("CC(c1cc(Cl)cc(Cl)c1)N(C)C(=S)c1c(C(F)F)nn(C)c1F (centres unmarked)")
"TRUE"
>>> category_label("CC(NC(=O)c1c(C(F)F)nn(C)c1Cl)c1ccccc1Cl (racemic)")
"TRUE"
>>> category_label("Cn1nc(C(F)F)c(C(=O)NCc2ccc(Cl)cc2Cl)c1F")
"TRUE"
>>> category_label("CN(Cc1ccc(Oc2ccc(Cl)cc2)cc1)C(=O)c1c(C(F)F)nn(C)c1F")
"TRUE"
>>> category_label("CC(NC(=O)c1c(C(F)F)nn(C)c1F)c1ccc(-c2ccccc2)cc1 (racemic)")
"TRUE"
>>> category_label("Cn1nc(C(F)F)c(C(=O)NC2(c3ccc(Cl)cc3Cl)CC2)c1Cl")
"FALSE"
>>> category_label("Cn1nc(C(F)F)c(C(=O)NC(C)(C)c2cc(Cl)cc(Cl)c2)c1Cl")
"FALSE"
>>> category_label("Cn1nc(C(F)F)c(C(=O)NC2CCc3ccccc32)c1F (centres unmarked)")
"TRUE"
>>> category_label("CC(NC(=O)c1c(C(F)F)nn(C)c1Cl)c1ccc(Cl)cc1Cl (centres unmarked)")
"TRUE"
>>> category_label("CCN(Cc1ccccc1[Si](C)(C)C)C(=O)c1c(C(F)F)nn(C)c1F")
"TRUE"
>>> category_label("CC(NC(=O)c1c(C(F)F)nn(C)c1F)c1ccccc1C(F)(F)F (centres unmarked)")
"TRUE"
>>> category_label("CN(Cc1c(Cl)cccc1C(F)(F)F)C(=O)c1c(C(F)F)nn(C)c1F")
"TRUE"

----------
test: log P by HPLC on reversed-phase column (EEC Directive 79/831 Annex V.A8); assay type: physicochemical; settings: HPLC, reversed-phase C 18, 40° C., 0.1% aqueous formic acid and acetonitrile, linear gradient 10% to 90% acetonitrile
readout type: logP

>>> endpoint_result("CC(C)c1ccccc1CNC(=O)c1c(C(F)F)nn(C)c1Cl")
3.19
>>> endpoint_result("CCc1ccccc1CN(CC#N)C(=O)c1c(C(F)F)nn(C)c1F")
2.68
>>> endpoint_result("Cn1nc(C(F)F)c(C(=O)NC(C#N)c2ccccc2)c1F (racemic)")
2.07
>>> endpoint_result("Cn1nc(C(F)F)c(C(=O)N(CC#N)Cc2c(Cl)cccc2C(F)(F)F)c1F")
2.68
>>> endpoint_result("C#CCN(Cc1ccccc1[Si](C)(C)C)C(=O)c1c(C(F)F)nn(C)c1F")
3.93
>>> endpoint_result("CN(Cc1ccc(Cl)cc1Cl)C(=O)c1c(C(F)F)nn(C)c1F")
3.19
>>> endpoint_result("Cn1nc(C(F)F)c(C(=O)N(Cc2c(Cl)cccc2C(F)(F)F)C2CCC2)c1F")
3.81
>>> endpoint_result("CC(NC(=O)c1c(C(F)F)nn(C)c1Cl)c1ccccc1C(F)(F)F (centres unmarked)")
3.11
>>> endpoint_result("C=CCN(Cc1ccccc1[Si](C)(C)C)C(=O)c1c(C(F)F)nn(C)c1F")
4.27
>>> endpoint_result("CCN(Cc1ccccc1[Si](C)(C)C)C(=O)c1c(C(F)F)nn(C)c1F")
4.09
>>> endpoint_result("CC(C)c1ccccc1CN(C(=O)c1c(C(F)F)nn(C)c1F)C1CCC1")
3.90
>>> endpoint_result("CC(NC(=O)c1c(C(F)F)nn(C)c1F)c1cccc(Cl)c1Cl (racemic)")
3.13
>>> endpoint_result("CN(Cc1cc(Cl)ccc1Cl)C(=O)c1c(C(F)F)nn(C)c1Cl")
3.23
>>> endpoint_result("Cn1nc(C(F)F)c(C(=O)NCc2ccccc2C(F)(F)F)c1Cl")
2.96
>>> endpoint_result("Cn1nc(C(F)F)c(C(=O)NC(c2ccccc2Cl)C(F)(F)F)c1Cl (racemic)")
3.33
>>> endpoint_result("C#CCN(Cc1c(Cl)cccc1C(F)(F)F)C(=O)c1c(C(F)F)nn(C)c1F")
3.05
>>> endpoint_result("CC(c1cc(Cl)ccc1Cl)N(C)C(=O)c1c(C(F)F)nn(C)c1Cl (centres unmarked)")
3.33
>>> endpoint_result("CON(C(=O)c1c(C(F)F)nn(C)c1F)C(C)c1ccc(Cl)cc1Cl (centres unmarked)")
3.65
>>> endpoint_result("CC(NC(=O)c1c(C(F)F)nn(C)c1F)c1ccccc1C(F)(F)F (centres unmarked)")
2.96
>>> endpoint_result("CC(NC(=O)c1c(C(F)F)nn(C)c1Cl)c1ccccc1 (racemic)")
2.49
